system: Zif268 zinc finger protein (three fingers) (UniProt P08046 SEQ:1-89)
experimental_protocol: EMSA; Zn2+, Mg2+, pH 7.7, RT; no yeast growth; 1.3-fold repression (Table 8)
endpoint: Kd (nM)
Give the number; nM is assumed, so skip it.

*Q* Name the recorded Kd for ACAT probe (dsDNA) DNA 1: CCGGGTCGGACATGGGCGGTACCG DNA 2: TCGACGGTACCGCCCATGTCCGAC .
*A* 1.3
